Target: T1, Extracellular domain of TIM-3 with Flag and His tag (human)
T1 construct: also called TIM-3-Flag-His
Assay: Biacore SPR; antibody captured by anti-human capture antibody on CM5, TIM-3-Flag-His in mobile phase
PROPERTY_NAME: Kd (nM)
Reply numerically in nM, unit not repeated.

Sample answers from the record:
h1701-010 (antibody, human IgG4 S228P, kappa, V domains shown, Humanized IgG4 (S228P)/kappa) VH: QVQLVQSGAEVKKPGASVKVSCKASGYTFTDYYMNWVRQAPGQGLEWMGDIIPNNGGSKYNQKFKDRVTMTTDTSTSTAYMELRSLRSDDTAVYYCATWGYGSSYRWFDYWGQGTLVTVSS VL: DIQMTQSPSSLSASVGDRVTITCLASQPIGIWLAWYQQKPGKSPKLLIYAATSLADGVPSRFSGSGSGTDFTFTISSLQPEDIATYYCQQLYSSPWTFGGGTKVEIKR
2.25
Ch1701 (antibody, human IgG4 S228P, kappa, V domains shown) VH: EVQLQQSGPELVKPGASVKISCKASGYTFTDYYMNWVKQSHGKSLEWIADIIPNNGGSKYNQKFKDKATLTVDKSSSTAYMELRSLTSEDSAVYYCATWGYGSSYRWFDYWGQGTLVSVSA VL: DIQMTQSPASQSASLGESVTITCLASQPIGIWLAWYQQKPGKSPQLLIYAATSLADGVPSRFSGSGSGTKFSFKISSLQAEDFVSYYCQQLYSSPWTFGGGTKLEIKR
1.39
h1701-016 (antibody, human IgG4 S228P, kappa, V domains shown, Humanized IgG4 (S228P)/kappa) VH: QVQLVQSGAEVKKPGASVKVSCKASGYTFTDYYMNWVRQAPGQGLEWIADIIPNNGGSKYNQKFKDRATLTTDTSTSTAYMELRSLRSDDTAVYYCATWGYGSSYRWFDYWGQGTLVTVSS VL: DIQMTQSPSSLSASVGDRVTITCLASQPIGIWLAWYQQKPGKSPKLLIYAATSLADGVPSRFSGSGSGTDFTFTISSLQPEDIATYYCQQLYSSPWTFGGGTKVEIKR
1.6

Now for a further binder.
Input Ch1799 (antibody, human IgG4 S228P, kappa, V domains shown) VH: EVKLVESEGGLVQPGSSMKLSCTASGFTFSDYYMAWVRQVPEKGLEWVANINYDGSSTYYLDSLKSRFIISRDNAKNILYLQMNSLKSDDTATYYCARDVGYYGGNYGFAYWGQGTLVTVSA VL: DIQMTQSPASLSASVGETVTITCRASDNIYSYLAWYQQKQGKSPQLLVYNAKTLAEGVPSRFSGSGSGTQFSLKINSLQPEDFGSYYCQQHYGSPLTFGAGTKLELKR , output reported Kd. 1.76
